test system: S. aureus KP90-3 (MRSA); assay: Antibacterial activity, MIC by agar plate dilution assay; format: cell-based; parameters: unit not given here
quantity-name: Minimum Inhibitory Concentration (MIC)
No unit in the answer, please; the number alone is enough.

The following molecules have reported results that may help.
• N[C@@H]1CN(c2nc3c(cc2F)c(=O)c(C(=O)O)cn3-c2ccc(F)cc2F)C[C@H]1C(F)(F)F (relative stereo) [Example 35a] = 25
• COc1c(N2C[C@@H](N)[C@H](C(F)(F)F)C2)c(F)cc2c(=O)c(C(=O)O)cn(C3CC3)c12 (relative stereo) [Example 31a] = 3.13
• Cl.NC[C@@H]1CN(c2c(F)cc3c(=O)c(C(=O)O)cn(C4CC4)c3c2F)C[C@H]1C(F)(F)F (relative stereo) [Example 12a] = 0.78
• Nc1c(F)c(N2C[C@@H](CO)[C@H](C(F)(F)F)C2)c(F)c2c1c(=O)c(C(=O)O)cn2C1CC1 (relative stereo) = 3.13
• CC1COc2c(N3CCN(C)CC3)c(F)cc3c(=O)c(C(=O)O)cn1c23 (centres unmarked) [OFLX, Ofloxacin, reference compound] = 25
• COc1c(N2C[C@@H](CN)[C@H](C(F)(F)F)C2)c(F)cc2c(=O)c(C(=O)O)cn(C3CC3)c12 (relative stereo) [Example 21a] = 0.78

Request: Given the entry O=C(O)c1cn(C2CC2)c2c(F)c(N3C[C@@H](CO)[C@H](C(F)(F)F)C3)c(F)cc2c1=O (relative stereo) , report its measured Minimum Inhibitory Concentration (MIC).
Result: 3.13

Request: Given the entry N[C@@H]1CN(c2c(F)cc3c(=O)c(C(=O)O)cn(C4CC4)c3c2Cl)C[C@H]1C(F)(F)F (relative stereo) [Example 26a] , report its measured Minimum Inhibitory Concentration (MIC).
Result: 3.13

----------
system: S. aureus Smith; assay: Antibacterial activity, MIC by agar plate dilution assay; assay type: cell-based; design: unit not given here
# Met = Minimum Inhibitory Concentration (MIC) below 0.05 (exclusive); Not met = Minimum Inhibitory Concentration (MIC) at/above 0.05

• CC1COc2c(N3CCN(C)CC3)c(F)cc3c(=O)c(C(=O)O)cn1c23 (centres unmarked) [OFLX, Ofloxacin, reference compound] = Not met

Request: Identify whether the compound NC[C@@H]1CN(c2c(F)c(N)c3c(=O)c(C(=O)O)cn(C4CC4)c3c2F)C[C@H]1C(F)(F)F (relative stereo) [Example 18a] records Minimum Inhibitory Concentration (MIC) below 0.05.
Result: Met

Request: Identify whether the compound O=C(O)c1cn(C2CC2)c2c(F)c(N3C[C@@H](CO)[C@H](C(F)(F)F)C3)c(F)cc2c1=O (relative stereo) records Minimum Inhibitory Concentration (MIC) below 0.05.
Result: Met

Request: Identify whether the compound Cl.NC[C@@H]1CN(c2c(F)cc3c(=O)c(C(=O)O)cn(C4CC4)c3c2F)C[C@H]1C(F)(F)F (relative stereo) [Example 12a] records Minimum Inhibitory Concentration (MIC) below 0.05.
Result: Met

Request: Identify whether the compound Nc1c(F)c(N2C[C@@H](CO)[C@H](C(F)(F)F)C2)c(F)c2c1c(=O)c(C(=O)O)cn2C1CC1 (relative stereo) records Minimum Inhibitory Concentration (MIC) below 0.05.
Result: Met

Request: Identify whether the compound COc1c(N2C[C@@H](CN)[C@H](C(F)(F)F)C2)c(F)cc2c(=O)c(C(=O)O)cn(C3CC3)c12 (relative stereo) [Example 21a] records Minimum Inhibitory Concentration (MIC) below 0.05.
Result: Met
